- System: Streptococcus pneumoniae ATCC 49619
- protocol-text: Broth microdilution MIC, S. pneumoniae ATCC 49619
- Format: cell-based
- cond: ATCC49619, broth microdilution, 37° C., 20 hours, read-out: MIC S. pneumoniae ATCC 49619
measured-parameter: MIC (µg/mL)

Consider the reported MIC for these compounds:
| compound | MIC [µg/mL] |
| --- | --- |
| Cl.Cl.O=c1[nH]c(NCc2ccc(Cl)c(Cl)c2)nc2cnn(C3CCN(CC4CCCNC4)CC3)c12 (stereo not shown) | 8 |
| Cn1ccnc1Cn1ncc2nc(NCc3ccc(Cl)c(Cl)c3)[nH]c(=O)c21 | 4 |
| CN1CCOC(Cn2ncc3nc(NCc4ccc(Cl)c(Cl)c4)[nH]c(=O)c32)C1.Cl (stereo not shown) | 4 |
| Cl.O=C(O)C1CC(n2ncc3nc(NCc4ccc(Cl)c(Cl)c4)[nH]c(=O)c32)CN1 (stereo not shown) | 64 |

1: O=C(CO)Cn1ncc2nc(NCc3ccc(Cl)c(Cl)c3)[nH]c(=O)c21
2: Cl.Cl.O=c1[nH]c(NCc2ccc(Cl)c(Cl)c2)nc2cnn(CCN3CCN(CCO)CC3)c12
[in] Decide: 1 or 2 , by lowest recorded MIC. Kindly give the label for the entry you pick.
[out] 2

A: Cl.Cl.O=c1[nH]c(NCc2ccc(Cl)c(Cl)c2)nc2cnn(CCOCCN3CCNCC3)c12
B: COCCOCn1ncc2nc(NCc3ccc(Cl)c(Cl)c3)[nH]c(=O)c21
C: Cl.O=C(c1ncc[nH]1)N1CCC(n2ncc3nc(NCc4ccc(Cl)c(Cl)c4)[nH]c(=O)c32)CC1
D: CNC(=N)NCCn1ncc2nc(NCc3ccc(Cl)c(Cl)c3)[nH]c(=O)c21.Cl
E: Cl.O=C(c1cccnc1)N1CCCC(Cn2ncc3nc(NCc4ccc(Cl)c(Cl)c4)[nH]c(=O)c32)C1 (stereo not shown)
[in] I would appreciate it if you could sort these 5 compounds by MIC, starting from the smallest number. Order the labels as requested and list them.
[out] B, C, E, A, D
(B: 2 µg/mL, C: 4 µg/mL, E: 8 µg/mL, A: 16 µg/mL, D: 32 µg/mL)

I: Cn1nc(CCO)c2nc(NCc3ccc(Cl)c(Cl)c3)[nH]c(=O)c21
II: Cc1nnc(CCn2ncc3nc(NCc4ccc(Cl)c(Cl)c4)[nH]c(=O)c32)o1
III: Cl.O=C([C@@H]1C[C@H](O)CN1)N1CCC(n2ncc3nc(NCc4ccc(Cl)c(Cl)c4)[nH]c(=O)c32)CC1
IV: N.N.O=c1[nH]c(NCc2ccc(Cl)c(Cl)c2)nc2cnn(CCOCCOCOP(=O)(O)O)c12
V: CN(CCn1ncc2nc(NCc3ccc(Cl)c(Cl)c3)[nH]c(=O)c21)C(=O)c1cnoc1
[in] Which order do these items take when sorted by rising MIC? List them. Return value: ordered labels per request.
[out] II, I, V, IV, III
(II: 2 µg/mL, I: 4 µg/mL, V: 8 µg/mL, IV: 16 µg/mL, III: 32 µg/mL)

I: O=c1[nH]c(NCc2ccc(Cl)c(Cl)c2)nc2cnn(CCCCO)c12
II: Cl.O=c1[nH]c(NCc2ccc(Cl)c(Cl)c2)nc2cnn(CC3CNCCO3)c12 (stereo not shown)
[in] Select the item whose MIC value is smaller, choosing between I and II . Please respond with the label that marks your chosen entry.
[out] I

Reference source: patent US10723741B1
